Quick reference: Kd of the listed items.
ASSAYED_TARGET: JAK2 (JH1domain-catalytic, Y1007F,Y1008F) kinase (Homo sapiens, UniProt O60674, Y1007F/Y1008F)
Construct: JAK2 (JH1domain-catalytic, Y1007F,Y1008F) kinase was expressed as N-terminal fusion
Sequence (O60674 849-1124 Y1007F/Y1008F limits assumed): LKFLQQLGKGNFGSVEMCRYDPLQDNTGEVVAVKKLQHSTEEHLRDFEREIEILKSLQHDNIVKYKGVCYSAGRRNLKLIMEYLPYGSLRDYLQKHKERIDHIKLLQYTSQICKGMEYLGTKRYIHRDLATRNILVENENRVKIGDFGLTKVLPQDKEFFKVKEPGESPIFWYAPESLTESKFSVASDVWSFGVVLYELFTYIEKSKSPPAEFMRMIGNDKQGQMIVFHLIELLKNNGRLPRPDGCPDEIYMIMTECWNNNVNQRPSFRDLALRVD
ASSAY_COMMENT: JAK2 JH1 Domain Binding Assay
RUN_CONDITIONS: qPCR readout
READOUT_LABEL: Kd

molecule=COc1c(Oc2cnc3sccc3c2)cnc2nc(Nc3cc(C(C)(C)C)n([C@H]4CCN(C)C4)n3)n(C)c12 value="10 to 50 nM"
molecule=Cn1c(Nc2cc(C3CC3)cn(-c3cccnc3)c2=O)nc2ncc(Oc3cnn4ccncc34)c(Cl)c21 value="< 10 nM"
molecule=Cn1cc(C2CC2)cc(Nc2nc3ncc(Oc4cnc5cnc(C6CC6)n5c4)c(Cl)c3n2C)c1=O value="< 10 nM"
molecule=CN1CC[C@@H](n2nc(Nc3nc4ncc(Oc5cnc6scnc6c5)c(C(F)F)c4n3C)cc2C(C)(C)C)C1 value="10 to 50 nM"
molecule=Cn1c(Nc2ccc(CN3CCN(CCO)CC3)c(C(F)(F)F)c2)nc2ncc(Oc3cnn4ccncc34)c(Cl)c21 value="< 10 nM"
molecule=Cn1c(Nc2cc(C(F)(F)F)cn(CCO)c2=O)nc2ncc(Oc3cnn4cc(F)ccc34)c(Cl)c21 value="< 10 nM"
molecule="COc1c(Oc2cnn3ccncc23)cnc2nc(Nc3cc(C(F)(F)F)cn([C@H]4CC[C@@H]4O)c3=O)n(C)c12 (single isomer, unassigned)" value="10 to 50 nM"
molecule=Cn1cc(C2CC2)cc(Nc2nc3ncc(Oc4cnn5ccnc(OCCN6CCOCC6)c45)c(Cl)c3n2C)c1=O value="10 to 50 nM"
molecule=Cn1c(Nc2cc(C(F)(F)F)cn(C3CC4(COC4)C3)c2=O)nc2ncc(Oc3cnn4ccncc34)c(Cl)c21 value="< 10 nM"
molecule=COc1c[nH]c2ncc(Oc3cnc4nc(Nc5cc(C(F)(F)F)cn(C)c5=O)n(C)c4c3C#N)cc12 value="< 10 nM"
molecule=Cn1c(Nc2cc(C(C)(C)C)n([C@@H]3CCN(CCF)C3)n2)nc2ncc(Oc3cnn4ccnc4c3)c(Cl)c21 value="50 to 1000 nM"
molecule=Cn1c(Nc2cc(C3CC3)cn(CCCN3CCOCC3)c2=O)nc2ncc(Oc3cnn4ccncc34)c(Cl)c21 value="< 10 nM"
molecule=CN1CC[C@H](n2nc(Nc3nc4ncc(Oc5cnc6scnc6c5)c(Cl)c4n3C)cc2C(C)(C)C)C1 value="10 to 50 nM"
molecule="CN1CCCC1c1ccc(Nc2nc3ncc(Oc4cnn5ccncc45)c(Cl)c3n2C)cc1C(F)(F)F (single isomer, unassigned)" value="< 10 nM"
molecule="CNc1nccn2ncc(Oc3cnc4nc(Nc5cc(C(F)(F)F)n([C@@H]6COC[C@H]6O)n5)n(C)c4c3Cl)c12 (single isomer, unassigned)" value="< 10 nM"
molecule=Cn1cc(C(F)(F)F)cc(Nc2nc3ncc(Oc4cnn5ccc(N6CCOCC6)cc45)c(Cl)c3n2C)c1=O value="< 10 nM"
molecule=Cn1c(Nc2cc(C3CC3)cn(C3CCOCC3)c2=O)nc2ncc(Oc3cnn4ccncc34)c(Cl)c21 value="< 10 nM"
molecule=CNc1nccn2ncc(Oc3cnc4nc(Nc5cc(C(F)(F)C(F)(F)F)cn(C)c5=O)n(C)c4c3Cl)c12 value="< 10 nM"
molecule=Cn1c(Nc2cc(CN3CCOCC3)cc(C(F)(F)F)c2)nc2ncc(Oc3cnn4ccncc34)c(Cl)c21 value="< 10 nM"
molecule=CO[C@@H]1CCN(Cc2cc(Nc3nc4ncc(Oc5cnn6ccncc56)c(Cl)c4n3C)cc(C(F)(F)F)c2)C1 value="< 10 nM"
molecule=CN1CCC(Oc2cc(Nc3nc4ncc(Oc5cnn6ccncc56)c(Cl)c4n3C)cc(C(F)(F)F)c2)CC1 value="< 10 nM"
molecule=Cn1c(Nc2cc(C(F)(F)F)n(C3CC4(CCOCC4)C3)n2)nc2ncc(Oc3cnc4[nH]ccc4c3)c(C#N)c21 value="10 to 50 nM"
molecule="Cn1c(Nc2ccc(CN3CCC(O)C3)c(C(F)(F)F)c2)nc2ncc(Oc3cnn4ccncc34)c(Cl)c21 (stereo in doubt) [Example I-186]" value="< 10 nM"
molecule=Cn1c(Nc2cc(C3CC3)cn(CCO)c2=O)nc2ncc(Oc3cnn4cccc(F)c34)c(Cl)c21 value="< 10 nM"
molecule=Cn1c(Nc2cc(C(F)(F)F)cn([C@H]3C[C@H](O)C3)c2=O)nc2ncc(Oc3cnn4cccc(F)c34)c(Cl)c21 value="10 to 50 nM"
molecule=Cn1c(Nc2cc(C(C)(C)C)n([C@H]3CCO[C@@H]3CO)n2)nc2ncc(Oc3cnc4cnc(C5CC5)n4c3)c(Cl)c21 value="10 to 50 nM"
molecule=COc1ccc2c(Oc3cnc4nc(Nc5cc(C(F)(F)F)cn(C)c5=O)n(C)c4c3C#N)cnn2c1 value="< 10 nM"

# credit: patent US12043632B2
